I'd appreciate it if you could supply MPC values for the items below.
- Tested on: Escherichia coli
- experiment-notes: Antibacterial activity against beta-lactamase-positive ESBL-negative Escherichia coli E412 assessed as mutant prevention concentration after overnight incubation
- Assay type: functional
Give just the number in µg/mL; leave the unit off.

Memo: C[C@@H](O)[C@H]1C(=O)N2C(C(=O)O)=C(S[C@@H]3CN[C@H](CNS(N)(=O)=O)C3)[C@H](C)[C@H]12 , reported MPC: 0.125

Looking up C[C@@H](O)[C@H]1C(=O)N2C(C(=O)O)=C(SCCNC=N)C[C@H]12 [IMIPENEM ANHYDROUS] , I found its MPC recorded as 1

Entry under test: C[C@@H](O)[C@H]1C(=O)N2C(C(=O)O)=C(S[C@@H]3CN[C@H](C(=O)Nc4cccc(C(=O)O)c4)C3)[C@H](C)[C@H]12 . Its MPC was 1

Recorded MPC (compound C[C@@H](O)[C@H]1C(=O)N2C(C(=O)O)=C(S[C@@H]3CN[C@H](C(=O)N(C)C)C3)[C@H](C)[C@H]12 ): 0.25

----------
- System: Escherichia coli
- experiment-notes: Antibacterial activity against beta-lactamase-positive ESBL-positive Escherichia coli E458 assessed as mutant prevention concentration after overnight incubation
- Format: functional
reported-property: MPC (µg/mL)
Give a bare numeral; the unit µg/mL is implied.

Recorded result, C[C@@H](O)[C@H]1C(=O)N2C(C(=O)O)=C(S[C@@H]3CN[C@H](C(=O)N(C)C)C3)[C@H](C)[C@H]12 , MPC: 0.125

So, C[C@@H](O)[C@H]1C(=O)N2C(C(=O)O)=C(SCCNC=N)C[C@H]12 [IMIPENEM ANHYDROUS] ? Its MPC was 0.5

Please fill in: MPC reported for C[C@@H](O)[C@H]1C(=O)N2C(C(=O)O)=C(S[C@@H]3CN[C@H](CNS(N)(=O)=O)C3)[C@H](C)[C@H]12 = 0.06

C[C@@H](O)[C@H]1C(=O)N2C(C(=O)O)=C(S[C@@H]3CN[C@H](C(=O)Nc4cccc(C(=O)O)c4)C3)[C@H](C)[C@H]12 has a reported MPC of 0.5

----------
- Tested on: Escherichia coli
- experiment-notes: Antibacterial activity against beta-lactamase-positive ESBL-positive Escherichia coli E460 assessed as mutant prevention concentration after overnight incubation
- Assay type: functional
reported-property: MPC (µg/mL)
Response body: numeric value in µg/mL, unit text excluded.

// sample C[C@@H](O)[C@H]1C(=O)N2C(C(=O)O)=C(S[C@@H]3CN[C@H](C(=O)Nc4cccc(C(=O)O)c4)C3)[C@H](C)[C@H]12 , its MPC was 0.5

For this molecule ( C[C@@H](O)[C@H]1C(=O)N2C(C(=O)O)=C(S[C@@H]3CN[C@H](C(=O)N(C)C)C3)[C@H](C)[C@H]12 [MEROPENEM] ), measured MPC is 0.06

For C[C@@H](O)[C@H]1C(=O)N2C(C(=O)O)=C(SCCNC=N)C[C@H]12 [IMIPENEM ANHYDROUS] the molecule record lists MPC as 0.5

The value of MPC measured for the molecule C[C@@H](O)[C@H]1C(=O)N2C(C(=O)O)=C(S[C@@H]3CN[C@H](CNS(N)(=O)=O)C3)[C@H](C)[C@H]12 [DORIPENEM] turned out to be 0.125

----------
- Test system: Escherichia coli
- experiment-notes: Antibacterial activity against beta-lactamase-positive ESBL-negative Escherichia coli E484 assessed as mutant prevention concentration after overnight incubation
- Assay type: functional
reported-property: MPC

Data point: C[C@@H](O)[C@H]1C(=O)N2C(C(=O)O)=C(S[C@@H]3CN[C@H](C(=O)N(C)C)C3)[C@H](C)[C@H]12 ; MPC = 16 µg/mL

molecule C[C@@H](O)[C@H]1C(=O)N2C(C(=O)O)=C(S[C@@H]3CN[C@H](CNS(N)(=O)=O)C3)[C@H](C)[C@H]12 , MPC observed: 8 µg/mL

Recorded result, C[C@@H](O)[C@H]1C(=O)N2C(C(=O)O)=C(SCCNC=N)C[C@H]12 [IMIPENEM ANHYDROUS] , MPC: >16 µg/mL

Record C[C@@H](O)[C@H]1C(=O)N2C(C(=O)O)=C(S[C@@H]3CN[C@H](C(=O)Nc4cccc(C(=O)O)c4)C3)[C@H](C)[C@H]12 . Reported MPC: 128 µg/mL

----------
- Tested on: Klebsiella pneumoniae
- experiment-notes: Antibacterial activity against beta-lactamase-negative Klebsiella pneumoniae E358 assessed as mutant prevention concentration after overnight incubation
- Assay type: functional
Assign MPC to each entry below.
# value in µg/mL; strip the unit string

// returns MPC for C[C@@H](O)[C@H]1C(=O)N2C(C(=O)O)=C(SCCNC=N)C[C@H]12 [IMIPENEM ANHYDROUS] with Klebsiella pneumoniae; value = 0.5

Known value: Klebsiella pneumoniae MPC of the molecule C[C@@H](O)[C@H]1C(=O)N2C(C(=O)O)=C(S[C@@H]3CN[C@H](CNS(N)(=O)=O)C3)[C@H](C)[C@H]12 [DORIPENEM] equals 0.125

Entry C[C@@H](O)[C@H]1C(=O)N2C(C(=O)O)=C(S[C@@H]3CN[C@H](C(=O)N(C)C)C3)[C@H](C)[C@H]12 [MEROPENEM] ; assay system Klebsiella pneumoniae; MPC recorded at 0.06

Simply: C[C@@H](O)[C@H]1C(=O)N2C(C(=O)O)=C(S[C@@H]3CN[C@H](C(=O)Nc4cccc(C(=O)O)c4)C3)[C@H](C)[C@H]12 , Klebsiella pneumoniae, MPC = 0.03

----------
Would you kindly list MPC for each of these molecules?
- Tested on: Klebsiella pneumoniae
- experiment-notes: Antibacterial activity against beta-lactamase-negative Klebsiella pneumoniae E357 assessed as mutant prevention concentration after overnight incubation
- Assay type: functional
I only need the number, in µg/mL, no unit after it.

Looking up C[C@@H](O)[C@H]1C(=O)N2C(C(=O)O)=C(S[C@@H]3CN[C@H](C(=O)Nc4cccc(C(=O)O)c4)C3)[C@H](C)[C@H]12 , I see its MPC listed as 0.03

For C[C@@H](O)[C@H]1C(=O)N2C(C(=O)O)=C(SCCNC=N)C[C@H]12 [IMIPENEM ANHYDROUS] the molecule record lists MPC as 1

MPC for C[C@@H](O)[C@H]1C(=O)N2C(C(=O)O)=C(S[C@@H]3CN[C@H](C(=O)N(C)C)C3)[C@H](C)[C@H]12 is 0.125

Briefly, MPC measured for C[C@@H](O)[C@H]1C(=O)N2C(C(=O)O)=C(S[C@@H]3CN[C@H](CNS(N)(=O)=O)C3)[C@H](C)[C@H]12 : 0.125

----------
- Test system: Escherichia coli
- experiment-notes: Antibacterial activity against beta-lactamase-positive ESBL-positive Escherichia coli E450 assessed as mutant prevention concentration after overnight incubation
- Type: functional
Would you mind telling me the reported MPC of each entry?

Input C[C@@H](O)[C@H]1C(=O)N2C(C(=O)O)=C(SCCNC=N)C[C@H]12 [IMIPENEM ANHYDROUS] . Output MPC: 0.5 µg/mL

Value of measured MPC for the entry C[C@@H](O)[C@H]1C(=O)N2C(C(=O)O)=C(S[C@@H]3CN[C@H](C(=O)N(C)C)C3)[C@H](C)[C@H]12 : 0.06 µg/mL

The value of MPC measured for the compound C[C@@H](O)[C@H]1C(=O)N2C(C(=O)O)=C(S[C@@H]3CN[C@H](CNS(N)(=O)=O)C3)[C@H](C)[C@H]12 turned out to be 0.125 µg/mL

Memo: C[C@@H](O)[C@H]1C(=O)N2C(C(=O)O)=C(S[C@@H]3CN[C@H](C(=O)Nc4cccc(C(=O)O)c4)C3)[C@H](C)[C@H]12 , reported MPC: 1 µg/mL
